Target: T1, CD81 (UniProt P60033 1-236, limits assumed)
T1 construct: whole, on cells; also called CD81 receptor
T1 sequence (looked up): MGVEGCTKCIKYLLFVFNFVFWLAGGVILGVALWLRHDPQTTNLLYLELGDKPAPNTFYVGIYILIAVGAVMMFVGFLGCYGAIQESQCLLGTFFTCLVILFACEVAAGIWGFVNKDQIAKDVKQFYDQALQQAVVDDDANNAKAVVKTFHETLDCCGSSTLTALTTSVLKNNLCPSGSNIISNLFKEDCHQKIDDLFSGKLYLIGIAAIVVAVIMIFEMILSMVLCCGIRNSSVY
Test: cell ELISA;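 also: antibody binding to HuH7 cells expressing CD81 versus a CD81-negative HuH7 control line, bound antibody detected by secondary reagent, absorbance at 450 nm with 620 nm reference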

Binder: CD81K04 HC JA_GG-15-hVH_1_3 / LC GG-05-hVK_3_11 (antibody, V domains shown, human constant region) VH: QVQLVQSGAEVKKPGASVKVSCKASGYTFSSSWMNWVRQAPGQRLEWMGRIYSGDGDAIYNGKFKGRVTITADTSASTAYMELSSLRSEDTAVYYCAREGKTGDLLLRSWGQGTLVTVSS VL: EIVLTQSPATLSLSPGERATLSCRASKSVSTSIYSYLHWYQQKPGQAPRLLIYYASNRETGIPARFSGSGSGTDFTLTISSLEPEDFAVYYCQHSREFPFTFGQGTKLEIK
ELISA data: 0.699
//
Binder: CD81K04 HC GG-02-hVH_1_69 / LC GG-02-hVK_4_1 (antibody, V domains shown, human constant region) VH: QVQLVQSGAEVKKPGSSVKVSCKASGYTFSSSWMNWVRQAPGQGLEWMGRIYSGDGDAIYNQKFQGRVTITADESTSTAYMELSSLRSEDTAVYYCAREGKTGDLLLRSWGQGTLVTVSS VL: DIVMTQSPDSLAVSLGERATINCKSSKSVSTSIYSYMHWYQQKPGQPPKLLIYYASYRESGVPDRFSGSGSGTDFTLTISSLQAEDVAVYYCQHSREFPFTFGQGTKLEIK
ELISA data: 0.22
//
Binder: CD81K04 HC JA_GG-16-hVH_1_3 / LC CD81K04 (antibody, V domains shown, human constant region) VH: QVQLVQSGAEVKKPGASVKVSCKASGYTFSSSWMNWVRQAPGQGLEWMGRIYSGDGDAIYNGKFKGRVTITADTSASTAYMELSSLRSEDTAVYYCAREGKTGDLLLRSWGQGTLVTVSS VL: DIVLTQSPASLSVSLGQRATISCRASKSVSTSIYSYMHWYQQKPGQPPKLLIKYASYLESGVPARFSGSGSGTDFTLNIHPVEEEDAATYYCEHSREFPFTFGTGTKLEIK
ELISA data: 0.98
//
Binder: CD81K04 HC GG-03-hVH_1_69 / LC GG-02-hVK_4_1 (antibody, V domains shown, human constant region) VH: QVQLVQSGAEVKKPGSSVKVSCKASGYTFSSSWMNWVRQAPGQGLEWMGRIYSGDGDAIYAQKFQGRVTITADESTSTAYMELSSLRSEDTAVYYCAREGKTGDLLLRSWGQGTLVTVSS VL: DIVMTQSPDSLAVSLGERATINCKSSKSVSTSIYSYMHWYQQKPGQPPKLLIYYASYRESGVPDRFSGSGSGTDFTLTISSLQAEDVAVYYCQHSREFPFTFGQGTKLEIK
ELISA data: 0.44
//
Binder: CD81K04 HC JA_GG-14-hVH_1_3 / LC GG-06-hVK_1_39 (antibody, V domains shown, human constant region) VH: QVQLVQSGAEVKKPGASVKVSCKASGYTFSSSWMNWVRQAPGQGLEWMGRIYSGDGDAIYNGKFKGRATITADTSASTAYMELSSLRSEDTAVYYCAREGKTGDLLLRSWGQGTLVTVSS VL: DIQMTQSPSSLSASVGDRVTITCRASKSVSTSIYSYLNWYQQKPGKAPKLLIYYASYLQSGVPSRFSGSGSGTDFTLTISSLQPEDFATYYCQHSREFPYTFGQGTKLEIK
ELISA data: 0.091
